Data origin, for the record: ChEMBL document CHEMBL1124141

- experimental details: Acute toxicity in mice was determined after oral administration
- Format: organism-based
- condition info: mouse, in vivo
experimental readout: LD50 (mg/kg)
Numbers only here, please. The scale is mg/kg.

Problem: Request the reported LD50 associated with Nc1c2c(nc3ccccc13)CCCC2O.O=C(O)/C=C\C(=O)O (stereo unspecified) [VELNACRINE MALEATE]
Result: 136

----------
- subject of test: Acetylcholinesterase (Rattus norvegicus, UniProt P37136)
- Sequence (P37136 whole entry): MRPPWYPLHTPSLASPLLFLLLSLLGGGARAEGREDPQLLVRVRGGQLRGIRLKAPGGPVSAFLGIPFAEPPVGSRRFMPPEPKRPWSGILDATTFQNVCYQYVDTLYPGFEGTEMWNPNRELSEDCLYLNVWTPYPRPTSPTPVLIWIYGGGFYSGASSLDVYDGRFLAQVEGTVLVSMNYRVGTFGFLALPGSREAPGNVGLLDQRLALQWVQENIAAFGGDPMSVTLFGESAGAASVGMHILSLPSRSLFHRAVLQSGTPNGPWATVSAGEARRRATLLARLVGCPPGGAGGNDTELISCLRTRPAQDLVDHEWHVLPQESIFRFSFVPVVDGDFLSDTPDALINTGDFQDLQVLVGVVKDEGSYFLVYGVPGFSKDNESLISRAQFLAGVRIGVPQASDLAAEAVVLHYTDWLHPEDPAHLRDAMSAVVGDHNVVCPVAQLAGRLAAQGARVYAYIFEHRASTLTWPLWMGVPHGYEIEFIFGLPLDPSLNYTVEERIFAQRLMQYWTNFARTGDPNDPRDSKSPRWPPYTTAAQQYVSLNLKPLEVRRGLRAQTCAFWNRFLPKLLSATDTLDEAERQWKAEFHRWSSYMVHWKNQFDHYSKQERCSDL
- experimental details: In vitro inhibitory activity against acetylcholinesterase using rat striatal preparations
experimental readout: pIC50
pIC50 is a log-scale quantity: -log10 of the concentration expressed in molar.

Problem: Given Nc1c2c(nc3ccccc13)CCCC2O.O=C(O)/C=C\C(=O)O (stereo unspecified) [VELNACRINE MALEATE] , state its recorded pIC50.
Result: 5.32
